test system: RAW264.7; assay: Cytotoxicity against LPS-stimulated mouse RAW264.7 cells at 100 uM after 24 hrs by MTT assay; assay type: cell-based; conditions: raw264.7, 24 h

| COMPOUND | Activity |
| --- | --- |
| CC/C=C\CC1C(=O)C=CC1CC(=O)OC (centres undefined) | Toxic |
| CC/C=C\CC1C(=O)C(C(=O)OC)=CC1CC(=O)OC (centres undefined) | Toxic |
| CC/C=C\CC1C(=O)C(C#N)=CC1CC(=O)OC (centres undefined) | Toxic |
| CC/C=C\CC1C(=O)CCC1CC(=O)OC (centres undefined) [METHYL JASMONATE] | Toxic |

====

system: RAW264.7; test: Antiinflammatory activity in LPS-stimulated mouse RAW264.7 cells assessed as inhibition of NO production at 10 uM after 24 hrs by Griess reagent method; assay type: functional, cell-based
Active and inactive are the calls of the source. The calls are words filed in the database; no cut-off is given here.
REPORTED_ENDPOINT: Activity

| COMPOUND | TARGET_ENTITY | OBSERVED |
| --- | --- | --- |
| CCCCCC1C(=O)C(Cl)=CC1CC(=O)OC (centres undefined) | RAW264.7 | Active |
| CC/C=C\CC1C(=O)C(Br)=CC1CC(=O)OC (centres undefined) | RAW264.7 | Active |
| CCCCCC1C(=O)C(Br)=CC1CC(=O)OC (centres undefined) | RAW264.7 | Active |
| CC/C=C\CC1C(=O)C(Cl)=CC1CC(=O)OC (centres undefined) | RAW264.7 | Active |

Data credit: ChEMBL document CHEMBL1152203
